The measurements presented in this section are drawn from IntAct's records for PubMed 25910212.

B1: EF-hand domain-containing protein 1 (Homo sapiens), Q5JVL4 (parent)
chain: MVSNPVHGLPFLPGTSFKDSTKTAFHRSQTLSYRNGYAIVRRPTVGIGGDRLQFNQLSQAELDELASKAPVLTYGQPKQAPPADFIPAHVAFDKKVLKFDAYFQEDVPMSTEEQYRIRQVNIYYYLEDDSMSVIEPVVENSGILQGKLIKRQRLAKNDRGDHYHWKDLNRGINITIYGKTFRVVDCDQFTQVFLESQGIELNPPEKMALDPYTELRKQPLRKYVTPSDFDQLKQFLTFDKQVLRFYAIWDDTDSMYGECRTYIIHYYLMDDTVEIREVHERNDGRDPFPLLMNRQRVPKVLVENAKNFPQCVLEISDQEVLEWYTAKDFIVGKSLTILGRTFFIYDCDPFTRRYYKEKFGITDLPRIDVSKREPPPVKQELPPYNGFGLVEDSAQNCFALIPKAPKKDVIKMLVNDNKVLRYLAVLESPIPEDKDRRFVFSYFLATDMISIFEPPVRNSGIIGGKYLGRTKVVKPYSTVDNPVYYGPSDFFIGAVIEVFGHRFIILDTDEYVLKYMESNAAQYSPEALASIQNHVRKREAPAPEAESKQTEKDPGVQELEALIDTIQKQLKDHSCKDNIREAFQIYDKEASGYVDRDMFFKICESLNVPVDDSLVKELIRMCSHGEGKINYYNFVRAFSN

Variants of: B1
Assay context: with rim3a_human RIMBP3, Q9UFD9
Sequence (Q9UFD9 whole entry): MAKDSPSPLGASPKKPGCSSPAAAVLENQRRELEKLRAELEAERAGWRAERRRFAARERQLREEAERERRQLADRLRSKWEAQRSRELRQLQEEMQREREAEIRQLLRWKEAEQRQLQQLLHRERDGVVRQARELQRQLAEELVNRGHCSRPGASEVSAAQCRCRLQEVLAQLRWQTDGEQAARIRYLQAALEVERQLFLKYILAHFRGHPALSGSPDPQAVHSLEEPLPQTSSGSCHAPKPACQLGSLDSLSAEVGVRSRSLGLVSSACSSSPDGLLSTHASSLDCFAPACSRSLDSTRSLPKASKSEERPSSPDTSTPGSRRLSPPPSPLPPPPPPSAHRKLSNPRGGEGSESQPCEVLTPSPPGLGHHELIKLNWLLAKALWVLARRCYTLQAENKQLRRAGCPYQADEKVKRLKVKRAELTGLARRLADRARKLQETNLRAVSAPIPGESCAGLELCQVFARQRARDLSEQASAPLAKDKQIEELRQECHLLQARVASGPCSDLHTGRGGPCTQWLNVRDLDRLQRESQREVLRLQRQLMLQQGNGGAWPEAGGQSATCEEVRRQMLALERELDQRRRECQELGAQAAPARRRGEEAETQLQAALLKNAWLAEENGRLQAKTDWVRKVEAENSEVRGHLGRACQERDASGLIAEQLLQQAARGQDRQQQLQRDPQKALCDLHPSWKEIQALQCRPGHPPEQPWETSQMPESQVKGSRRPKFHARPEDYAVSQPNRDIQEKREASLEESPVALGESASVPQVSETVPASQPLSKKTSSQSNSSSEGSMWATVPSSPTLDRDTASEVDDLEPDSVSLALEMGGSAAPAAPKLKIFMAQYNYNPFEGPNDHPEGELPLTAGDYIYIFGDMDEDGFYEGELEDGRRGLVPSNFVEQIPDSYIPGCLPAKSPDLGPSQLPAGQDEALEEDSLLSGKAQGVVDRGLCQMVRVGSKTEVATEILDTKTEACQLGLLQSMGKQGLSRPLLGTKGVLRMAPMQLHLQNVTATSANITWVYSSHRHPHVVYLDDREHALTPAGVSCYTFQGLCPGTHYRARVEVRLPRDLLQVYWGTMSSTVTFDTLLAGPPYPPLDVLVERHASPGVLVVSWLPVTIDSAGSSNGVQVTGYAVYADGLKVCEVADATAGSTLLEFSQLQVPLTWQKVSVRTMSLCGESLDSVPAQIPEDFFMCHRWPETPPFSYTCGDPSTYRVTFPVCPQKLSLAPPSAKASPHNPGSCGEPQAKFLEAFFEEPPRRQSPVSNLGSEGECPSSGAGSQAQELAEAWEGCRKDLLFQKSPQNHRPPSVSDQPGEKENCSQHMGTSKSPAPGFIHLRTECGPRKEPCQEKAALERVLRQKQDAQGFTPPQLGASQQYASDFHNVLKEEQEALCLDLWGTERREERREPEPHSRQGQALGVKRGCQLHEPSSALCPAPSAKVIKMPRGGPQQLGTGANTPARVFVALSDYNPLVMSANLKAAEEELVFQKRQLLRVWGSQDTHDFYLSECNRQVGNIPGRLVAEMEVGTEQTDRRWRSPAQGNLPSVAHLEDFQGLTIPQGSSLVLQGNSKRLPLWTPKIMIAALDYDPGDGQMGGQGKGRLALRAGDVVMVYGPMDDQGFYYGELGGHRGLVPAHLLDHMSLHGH
Property name: effect of a mutation on the interaction

[[record]]
mut = "T508R"
property_name = "effect of a mutation on the interaction"
assay_result = "with no effect"

[[record]]
mut = "R159W"
property_name = "effect of a mutation on the interaction"
assay_result = "with no effect"

[[record]]
mut = "M448T"
property_name = "effect of a mutation on the interaction"
assay_result = "with no effect"

